These entries and their values trace back to patent US20240335431A1.

assayed target: hERG ion channel (Homo sapiens (Human), UniProt Q12809)
Sequence (Q12809 whole entry): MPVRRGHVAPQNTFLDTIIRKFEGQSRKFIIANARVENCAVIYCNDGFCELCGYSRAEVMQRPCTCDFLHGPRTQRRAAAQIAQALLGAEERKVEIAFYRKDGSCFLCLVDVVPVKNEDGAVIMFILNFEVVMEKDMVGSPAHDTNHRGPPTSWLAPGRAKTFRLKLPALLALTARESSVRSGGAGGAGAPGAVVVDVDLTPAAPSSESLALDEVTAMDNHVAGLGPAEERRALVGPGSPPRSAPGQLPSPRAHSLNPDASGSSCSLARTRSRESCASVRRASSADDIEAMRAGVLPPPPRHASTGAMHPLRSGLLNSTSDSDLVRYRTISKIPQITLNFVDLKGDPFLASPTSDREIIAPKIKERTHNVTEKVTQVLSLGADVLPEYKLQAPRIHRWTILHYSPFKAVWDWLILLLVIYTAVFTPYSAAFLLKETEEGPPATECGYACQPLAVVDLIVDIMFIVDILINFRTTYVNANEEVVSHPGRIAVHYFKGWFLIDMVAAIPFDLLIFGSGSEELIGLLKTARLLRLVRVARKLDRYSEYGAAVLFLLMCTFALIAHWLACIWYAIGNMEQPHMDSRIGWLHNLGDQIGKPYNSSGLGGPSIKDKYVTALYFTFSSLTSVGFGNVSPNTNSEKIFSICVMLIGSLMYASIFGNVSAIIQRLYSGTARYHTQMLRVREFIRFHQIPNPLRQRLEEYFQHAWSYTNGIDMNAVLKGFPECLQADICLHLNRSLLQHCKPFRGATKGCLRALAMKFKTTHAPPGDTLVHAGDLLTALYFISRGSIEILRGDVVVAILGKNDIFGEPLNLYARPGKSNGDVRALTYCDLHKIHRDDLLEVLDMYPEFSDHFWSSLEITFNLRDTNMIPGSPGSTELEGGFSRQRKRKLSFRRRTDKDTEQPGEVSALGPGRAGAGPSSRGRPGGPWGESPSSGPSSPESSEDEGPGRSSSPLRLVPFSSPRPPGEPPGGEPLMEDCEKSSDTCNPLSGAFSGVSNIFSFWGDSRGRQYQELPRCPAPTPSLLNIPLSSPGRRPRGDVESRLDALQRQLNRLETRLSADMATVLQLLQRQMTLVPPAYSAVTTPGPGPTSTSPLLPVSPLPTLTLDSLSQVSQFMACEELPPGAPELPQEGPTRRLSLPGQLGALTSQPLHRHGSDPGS
method summary: hERG assay 3, QPatchII 48X, 30 degrees Celsius
particulars: CHO cells
Task for the reader: assign each of the following compounds its reported pIC50.
Kindly note that pIC50 refers to -log10 of the concentration in mol/L and answer with the value alone.

Provide pIC50, system hERG ion channel (Homo sapiens (Human), UniProt Q12809), entry Cc1c(C(=O)C2CCN(C(=O)[C@@H]3CCC(C)(C)N3)CC2)c2ccncc2n1-c1ccc(F)cc1C(=O)N(C(C)C)C(C)C (single isomer, unassigned) 4.37

Provide pIC50, system hERG ion channel (Homo sapiens (Human), UniProt Q12809), entry CC(C)c1ncccc1-c1cc(F)ccc1-n1cc(C(=O)C2CN(C(=O)[C@H]3N[C@@H]4CC[C@H]3C4)C2)c2ccncc21 4.47

Provide pIC50, system hERG ion channel (Homo sapiens (Human), UniProt Q12809), entry Cc1c(C(=O)C2CCN(C(=O)[C@@H]3CCC4(CC4)N3)CC2)c2ccncc2n1-c1ccc(F)cc1C(=O)N1[C@H](C)COC[C@H]1C (single isomer, unassigned) 3.95

* * *

method summary: Caco-2 cell monolayers intrinsic permeation assay in the presence of efflux inhibitors
Format: in vitro ADME
particulars: Caco-2, with efflux inhibitors
Everything with Papp A→B lower than 2 ×10⁻⁶ cm/s is Not met; everything else, including exactly 2 ×10⁻⁶ cm/s, is Met.

Does the compound CC(C)N(C(=O)c1cc(F)ccc1-n1cc(C(=O)C2CCN(C(=O)[C@@H]3CCC4(CC4)N3)CC2)c2ccncc21)C(C)C have recorded Papp A→B that is 2 ×10⁻⁶ cm/s or more? Met

Does the compound CC(C)N(C(=O)c1cc(F)ccc1-n1cc(C(=O)C2CCN(C(=O)[C@H]3N[C@@H]4CC[C@H]3C4)CC2)c2c(F)cncc21)C(C)C.O=CO have recorded Papp A→B that is 2 ×10⁻⁶ cm/s or more? Not met

Does the compound CCN(C(=O)c1cc(F)ccc1-n1cc(C(=O)C2CN(C(=O)[C@H]3N[C@@H]4CC[C@H]3C4)C2)c2ccncc21)C(C)C have recorded Papp A→B that is 2 ×10⁻⁶ cm/s or more? Not met

Does the compound Cc1c(C(=O)[C@@H]2CCN(C(=O)[C@@H]3CC[C@H](C)N3)[C@@H](C)C2)c2ccncc2n1-c1ccc(F)cc1C(=O)N(C(C)C)C(C)C (stereo in doubt) have recorded Papp A→B that is 2 ×10⁻⁶ cm/s or more? Met

Does the compound CCN(C(=O)c1cc(F)ccc1-n1cc(C(=O)C2CCN(C(=O)[C@H]3N[C@H]4C[C@@H]3[C@@H](F)C4)CC2)c2ccncc21)C(C)C have recorded Papp A→B that is 2 ×10⁻⁶ cm/s or more? Not met

Does the compound CC(C)N(C(=O)c1cc(F)ccc1-n1cc(C(=O)C2CCN(C(=O)[C@H]3NC[C@@H]4CC[C@@H]43)CC2)c2ccncc21)C(C)C (relative stereo) have recorded Papp A→B that is 2 ×10⁻⁶ cm/s or more? Met

Does the compound Cc1c(C(=O)C2CCN(C(=O)[C@@H]3CCC4(CC4)N3)CC2)c2ccncc2n1-c1ccc(F)cc1C(=O)N1[C@H](C)COC[C@H]1C (single isomer, unassigned) have recorded Papp A→B that is 2 ×10⁻⁶ cm/s or more? Met

Does the compound CCN(C(=O)c1cc(F)ccc1-n1c(C)c(C(=O)[C@@H]2CCN(C(=O)[C@@H]3CCC4(CC4)N3)[C@@H](C)C2)c2ccncc21)C(C)C (single isomer, unassigned) have recorded Papp A→B that is 2 ×10⁻⁶ cm/s or more? Met

Does the compound CC(C)c1ncsc1-c1cc(F)ccc1-n1cc(C(=O)C2CN(C(=O)[C@H]3N[C@@H]4CC[C@H]3C4)C2)c2ccncc21.O=CO have recorded Papp A→B that is 2 ×10⁻⁶ cm/s or more? Not met

Does the compound CC(C)N(C(=O)c1cc(F)ccc1-n1cc(C(=O)C2CN(C(=O)[C@H]3NC4CCC3CC4)C2)c2ccncc21)C(C)C have recorded Papp A→B that is 2 ×10⁻⁶ cm/s or more? Not met

Does the compound Cc1c(C(=O)C2CCN(C(=O)[C@H]3NC[C@@H]4C[C@@H]43)CC2)c2ccncc2n1-c1ccc(F)cc1C(=O)N(CC(F)(F)F)C(C)C (single isomer, unassigned) have recorded Papp A→B that is 2 ×10⁻⁶ cm/s or more? Not met

Does the compound CC(C)N(C(=O)c1cc(F)ccc1-n1cc(C(=O)C2CN(C(=O)[C@H]3N[C@@H]4CC[C@H]3C4)C2)c2ccncc21)C(C)C have recorded Papp A→B that is 2 ×10⁻⁶ cm/s or more? Not met

* * *

Tested on: MV4;11 cells
method summary: Proliferation assay, MV4;11 (CellTiter-Glo, 7 days)
Type: cell-based, human
particulars: Homo sapiens, MV4-11, 168 h, read-out: MV-4-11 IC50
outcome measure: IC50

Provide only the value of recorded IC50 for Cc1c(C(=O)C2CCN(C(=O)[C@@H]3CC[C@H](C)N3)CC2)c2ccncc2n1-c1ccc(F)cc1C(=O)N(C(C)C)C(C)C [Example 60] 88 nM

Provide only the value of recorded IC50 for O=C(c1cn(-c2ccc(F)cc2-c2cncnc2C2CC2)c2cnccc12)C1CCN(C(=O)[C@H]2N[C@@H]3CC[C@H]2C3)CC1 [Example 40] 37 nM

Provide only the value of recorded IC50 for CCN(C(=O)c1cc(F)ccc1-n1cc(C(=O)C2CCN(C(=O)[C@H]3NC4CCC3CC4)CC2)c2ccncc21)C(C)C [Example 29] 57 nM

Provide only the value of recorded IC50 for CCN(C(=O)c1cc(F)ccc1-n1cc(C(=O)C2CN(C(=O)[C@H]3NC4CCC3CC4)C2)c2ccncc21)C(C)C [Example 9] 100 nM

Provide only the value of recorded IC50 for CC(C)N(C(=O)c1cc(F)ccc1-n1cc(C(=O)C2CCN(C(=O)[C@H]3N[C@H]4C[C@@H]3[C@@H](F)C4)CC2)c2ccncc21)C(C)C [Example 22] 17 nM

Provide only the value of recorded IC50 for C[C@@H]1COC[C@@H](C)N1C(=O)c1cc(F)ccc1-n1cc(C(=O)C2CCN(C(=O)[C@H]3N[C@@H]4CC[C@H]3C4)CC2)c2ccncc21 [Example 34] 39 nM

Provide only the value of recorded IC50 for CCN(C(=O)c1cc(F)ccc1-n1cc(C(=O)C2CCN(C(=O)[C@H]3N[C@H]4C[C@@H]3[C@@H](F)C4)CC2)c2ccncc21)C(C)C [Example 30] 33 nM

Provide only the value of recorded IC50 for CC(C)N(C(=O)c1cc(F)ccc1-n1cc(C(=O)C2CN(C(=O)[C@H]3N[C@@H]4CC[C@H]3C4)C2)c2ccncc21)C(C)C [Example 5] 85 nM

Provide only the value of recorded IC50 for CC(C)N(C(=O)c1cc(F)ccc1-n1cc(C(=O)C2CN(C(=O)[C@H]3NC4CCC3CC4)C2)c2ccncc21)C(C)C [Example 6] 46 nM

Provide only the value of recorded IC50 for CCN(C(=O)c1cc(F)ccc1-n1cc(C(=O)C2CCN(C(=O)[C@H]3NC[C@@H]4C[C@@H]43)CC2)c2ccncc21)C(C)C [Example 28] 34 nM

Provide only the value of recorded IC50 for CCN(C(=O)c1cc(F)ccc1-n1c(C)c(C(=O)C2CCN(C(=O)[C@H]3N[C@@H]4CC[C@H]3C4)CC2)c2ccncc21)C(C)C [Example 46] 37 nM

Provide only the value of recorded IC50 for Cc1c(C(=O)C2CCN(C(=O)[C@H]3NC[C@@H]4C[C@@H]43)CC2)c2ccncc2n1-c1ccc(F)cc1-c1cnccc1C(C)C [Example 54] 40 nM

Provide only the value of recorded IC50 for C[C@@H]1CC[C@H](C)N1C(=O)c1cc(F)ccc1-n1cc(C(=O)C2CCN(C(=O)[C@H]3N[C@@H]4CC[C@H]3C4)CC2)c2ccncc21 [Example 32] 144 nM

Provide only the value of recorded IC50 for CC(C)N(C(=O)c1cc(F)ccc1-n1cc(C(=O)C2CCN(C(=O)[C@H]3NC[C@@H]4CC[C@@H]43)CC2)c2ccncc21)C(C)C (relative stereo) [Example 25] 24 nM

Provide only the value of recorded IC50 for CC(C)N(C(=O)c1cc(F)ccc1-n1cc(C(=O)C2CN(C(=O)[C@H]3N[C@@H]4CC[C@H]3C4)C2)c2ccnc(F)c21)C(C)C [Example 15] 53 nM

Provide only the value of recorded IC50 for CC(C)N(C(=O)c1cc(F)ccc1-n1cc(C(=O)C2CN(C(=O)[C@H]3N[C@@H]4CC[C@H]3C4)C2)c2ccnnc21)C(C)C [Example 14] 345 nM

Provide only the value of recorded IC50 for CC(C)c1ccccc1-c1cc(F)ccc1-n1cc(C(=O)C2CCN(C(=O)[C@H]3N[C@@H]4CC[C@H]3C4)CC2)c2ccncc21 [Example 39] 31 nM

Provide only the value of recorded IC50 for CC(C)N(C(=O)c1cc(F)ccc1-n1cc(C(=O)[C@H]2CCN(C(=O)[C@H]3N[C@@H]4CC[C@H]3C4)C2)c2ccncc21)C(C)C [Example 2] 97 nM

Provide only the value of recorded IC50 for CC(C)N(C(=O)c1cc(F)ccc1-n1cc(C(=O)C2CCN(C(=O)[C@H]3N[C@@H]4CC[C@H]3C4)CC2)c2ccncc21)C(C)C [Example 16] 29 nM

Provide only the value of recorded IC50 for CC(C)c1ncncc1-c1cc(F)ccc1-n1cc(C(=O)C2CCN(C(=O)[C@H]3N[C@@H]4CC[C@H]3C4)CC2)c2ccncc21 [Example 37] 34 nM

Provide only the value of recorded IC50 for CC(C)N(C(=O)c1cc(F)ccc1-n1cc(C(=O)C2CCN(C(=O)[C@H]3N[C@@H]4CC[C@H]3C4)CC2)c2c(F)cncc21)C(C)C.O=CO [Example 44] 65 nM

Provide only the value of recorded IC50 for CC(C)c1ncccc1-c1cc(F)ccc1-n1cc(C(=O)C2CN(C(=O)[C@H]3N[C@@H]4CC[C@H]3C4)C2)c2ccncc21 [Example 10] 24 nM

Provide only the value of recorded IC50 for CCN(C(=O)c1cc(F)ccc1-n1cc(C(=O)C2CCN(C(=O)[C@H]3N[C@@H]4CC[C@H]3C4)CC2)c2ccncc21)C(C)C [Example 31] 32 nM

Provide only the value of recorded IC50 for CCN(C(=O)c1cc(F)ccc1-n1c(C)c(C(=O)C2CCN(C(=O)[C@@H]3CCC(C)(C)N3)CC2)c2ccncc21)C(C)C (single isomer, unassigned) [Example 50-2] 39 nM
